- tgt: USP20 zf-UBP domain, tag cleaved (for FP) (human)
- Sequence (chain, as listed by the source): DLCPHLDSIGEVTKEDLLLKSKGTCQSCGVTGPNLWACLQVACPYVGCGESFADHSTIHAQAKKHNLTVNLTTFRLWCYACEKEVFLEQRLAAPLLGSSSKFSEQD
- assay.info: FP
pKd: −log10 of the molar value.
readout: pKd

>  <binder>
Ac-TNSSGKMALNSPQPG-NH2 [IRAG1 302-316]

>  <comparative.sign>
=

>  <observed>
5.05

$$$$
>  <binder>
Ac-EKVKRRLDLDID-NH2 [CCP110_(582-593) peptide]

>  <comparative.sign>
<

>  <observed>
3.30

$$$$
>  <binder>
Ac-LQPSSKASLESTSDL-NH2 [CEP192 2073-2087]

>  <comparative.sign>
=

>  <observed>
4.43

$$$$
